Molecular target: ER (Homo sapiens)
Construct: endogenous in cells; probably T47D or MCF-7
Assay: In-cell Western (ICW) ER degradation assay in T47D cells
Format: cell-based
Details: T47D, T47D cells, 16 hrs; read-out: ER T47D ICW Dmax (%)
Reported endpoint: Dmax

{"Compound": "C[C@@H]1Cc2c(ccc3[nH]ncc23)C(c2ccc(N3CCC4(CC3)CC(CN3CCN5c6ccc7c(c6OC[C@H]5C3)CN([C@H]3CCC(=O)NC3=O)C7=O)C4)nc2)N1CC(F)(F)F (stereo in doubt) [Compound A26]", "Reported endpoint": "Dmax", "Measured value": "> 75%"}
{"Compound": "C[C@H]1Cc2c(ccc3[nH]ncc23)[C@@H](c2ccc(N3CC4(CCC(CN5CCN6c7ccc8c(c7OC[C@@H]6C5)CN([C@@H]5CCC(=O)NC5=O)C8=O)CC4)C3)nc2)N1CC(F)(F)F (stereo in doubt) [Compound A18]", "Reported endpoint": "Dmax", "Measured value": "50 to 75%"}
{"Compound": "C[C@H]1Cc2c(ccc3[nH]ncc23)[C@H](c2ccc(N3CCC4(CC3)CC(CN3CCN(c5ccc(C(=O)NC6CCC(=O)NC6=O)nc5)CC3)C4)cn2)N1CC(F)(F)F (stereo in doubt) [Compound A9]", "Reported endpoint": "Dmax", "Measured value": "50 to 75%"}
{"Compound": "C[C@@H]1Cc2c(ccc3[nH]ncc23)[C@@H](c2ccc(N3CC4(CCC(CN5CCN6c7ccc8c(c7OC[C@H]6C5)CN([C@H]5CCC(=O)NC5=O)C8=O)CC4)C3)cn2)N1CC1(F)CC1 [Compound A11]", "Reported endpoint": "Dmax", "Measured value": "> 75%"}
{"Compound": "C[C@@H]1Cc2c(ccc3[nH]ncc23)[C@@H](c2ccc(N3CC4(CCC(CN5CCN6c7ccc8c(c7OC[C@H]6C5)CN([C@H]5CCC(=O)NC5=O)C8=O)CC4)C3)nc2)N1CC(F)(F)F [Compound A17]", "Reported endpoint": "Dmax", "Measured value": "> 75%"}
{"Compound": "C[C@@H]1Cc2c(ccc3[nH]ncc23)[C@@H](c2ccc(N3CCC4(CC3)CC(CN3CCN5c6ccc7c(c6OC[C@H]5C3)CN([C@H]3CCC(=O)NC3=O)C7=O)C4)cn2)N1CC1(F)CC1 [Compound A4]", "Reported endpoint": "Dmax", "Measured value": "> 75%"}
{"Compound": "C[C@H]1Cc2c(ccc3[nH]ncc23)[C@H](c2ccc(N3CCC4(CC3)CC(CN3CCN5c6cc7c(cc6OC[C@@H]5C3)C(=O)N([C@@H]3CCC(=O)NC3=O)C7)C4)cn2)N1CC1(F)CC1 (stereo in doubt) [Compound A13]", "Reported endpoint": "Dmax", "Measured value": "50 to 75%"}
{"Compound": "C[C@@H]1Cc2c(ccc3[nH]ncc23)[C@@H](c2c(F)cc(N3CCC(CN4CCN5c6ccc7c(c6OC[C@@H]5C4)CN(C4CCC(=O)NC4=O)C7=O)CC3)cc2F)N1CC(F)F (stereo partly drawn) [Compound A2]", "Reported endpoint": "Dmax", "Measured value": "50 to 75%"}
{"Compound": "C[C@@H]1Cc2c(ccc3[nH]ncc23)[C@@H](c2ccc(N3CCC4(CC3)CC(CN3CCN5c6cc7c(cc6OC[C@H]5C3)C(=O)N([C@@H]3CCC(=O)NC3=O)C7)C4)cn2)N1CC1(F)CC1 [Compound A14]", "Reported endpoint": "Dmax", "Measured value": "> 75%"}

The reported numbers originate from patent US20260256925A1.
